molecular target: Gal(b1-4)GlcNAc(b1-2)Man(a1-3)[Gal(b1-4)GlcNAc(b1-2)Man(a1-6)]Man(b1-4)GlcNAc(b1-4)GlcNAc; test: glycan array binding signal (z-score within array); higher = stronger binding; conditions: glycan notation: IUPAC condensed, linker removed
Only a selection was taken, and the strongest signals are over-represented in it overall.
measurement-type: glycan array binding signal (z-score)

Req: For the binder shown here, EULS2 M1 (Oryza sativa) (protein) MVYCRANPNYAMTARNGAVVLAPANPKDEYQHWIKDMRWSTSIKDEEGYPAFALVNKATGQAIKHSLGQSHPVRLVPYNPEVMDESVLWTESRDVGNGFRCIRMVNNIYLNFDAFHGDKYHGGVRDGTDIVLWKLCEGDNQRWKIQPYYILEQKLISEEDLNSAVDHHHHHH , give the reported glycan array binding signal (z-score).
Resp: -0.312

Req: Please do the same for MRCL (Homo sapiens), NP_872425.1 (protein) ATKVHFPFHTCDLRIDGDCFMVSSEADTYYRARMKCQRKGGVLAQIKSQKVQDILAFYLGRLETTNEVTDSDFETRNFWIGLTYKTAKDSFRWATGEHQAFTSFAFGQPDNHGLVWLSAAMGFGNCVELQASAAFNWNNQRCKTRNRYICQFAQEHISRWGPGS as well.
Resp: -0.358

Could you now look at the following binder, please?
Req: For the binder shown here, Clec18A (Homo sapiens) (protein) PFHTCDLRIDGDCFMVSSEADTYYRARMKCQRKGGVLAQIKRQKVQDILAFYLGRLETTNEVIDSDFETRNFWIGLTYKTAKDSFRWATGEHQAFTSFAFGQPDNHGFGNCVELQASAAFNWNDQRCKTRNRYICQ , give the reported glycan array binding signal (z-score).
Resp: 1.15

These entries and their values trace back to the supplement of paper PMC8728848.
